MEASUREMENT_TARGET: T1, bacterially produced human IL-6 (human, UniProt P05231 30-212)
T1 construct: also called bactIL-6; prokaryotic IL-6
EXPERIMENTAL_PROTOCOL: SPR; periplasmic fraction
Here the recorded koff is given for each entry.
API: value field is a number in s⁻¹; no unit string.

Some solved entries appear below for comparison.
**Q:** Requested field: koff. Item: Fab 29B11 (Fab, V domains shown, Fab) VH: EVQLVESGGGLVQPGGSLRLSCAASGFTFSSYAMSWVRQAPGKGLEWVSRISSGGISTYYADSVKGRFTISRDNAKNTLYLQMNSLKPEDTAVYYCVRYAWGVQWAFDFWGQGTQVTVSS VL: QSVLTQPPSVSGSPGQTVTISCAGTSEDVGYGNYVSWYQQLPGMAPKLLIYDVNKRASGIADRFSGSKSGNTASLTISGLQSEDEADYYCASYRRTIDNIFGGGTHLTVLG
**A:** 0.000131

**Q:** Requested field: koff. Item: Fab 48C10 (Fab, V domains shown, VL-shuffled Fab of 29B11, periplasmic fraction) VH: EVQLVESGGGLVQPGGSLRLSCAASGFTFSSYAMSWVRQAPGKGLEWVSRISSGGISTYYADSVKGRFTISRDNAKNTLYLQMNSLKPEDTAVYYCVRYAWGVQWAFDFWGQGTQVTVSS VL: AQSVLTQPPSVSGSPGQTVTISCAGTSEDVGYGNYVSWYQQLPGMAPKLLIYDVNKRASGIADRFSGSKSGNTASLTISGLQSEDEADYYCASYRRTIDNIFGGGTHLTVLG
**A:** 0.000184

Please find the next binder below.
**Q:** Requested field: koff. Item: Fab 55H1 (Fab, V domains shown, VL-shuffled Fab of 29B11, periplasmic fraction; also called 55H1c) VH: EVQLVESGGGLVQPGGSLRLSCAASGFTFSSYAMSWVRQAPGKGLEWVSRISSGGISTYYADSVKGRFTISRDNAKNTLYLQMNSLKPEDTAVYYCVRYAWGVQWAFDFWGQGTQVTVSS VL: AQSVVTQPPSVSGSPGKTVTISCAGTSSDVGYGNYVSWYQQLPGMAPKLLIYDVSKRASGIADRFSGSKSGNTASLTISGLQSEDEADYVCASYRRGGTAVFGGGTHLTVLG
**A:** 0.000127
